Origin of measurements: PubChem BioAssay (NCI)

- Tested on: SF-268 CNS
- assay_details: NCI-60 one-dose screen, 48 h
- test_context: 10 µM unless noted
About 83,000 compounds went through this panel and 20% of them were active in at least one assay; those are over-represented in the sample as a whole. Active and inactive are the calls of the source. The calls were made as follows: active = growth percent below 10; inactive = the rest.
Outcome codes: t = active, f = inactive

compound: CC[C@H](Nc1ncnc2nc[nH]c12)c1nc2cccc(NCc3ccc(C(=O)NO)nc3)c2c(=O)n1-c1ccccc1
study_system: SF-268 CNS
class_name: f
--
compound: CC1(C)Oc2cc3oc(=O)ccc3cc2C[C@@H]1OCCOS(=O)(=O)c1ccc(C#N)cc1
study_system: SF-268 CNS
class_name: f
--
compound: CC(=O)OCC1O[C@@H](OC(C)=O)[C@@H](NC(=O)NS(=O)(=O)c2ccccc2)C(OC(C)=O)[C@@H]1OC(C)=O (some centres undefined)
study_system: SF-268 CNS
class_name: f
--
compound: CC(=O)OCC(=O)[C@@]1(O)[C@H](C)C[C@H]2[C@@H]3C=C(C)C4=Cc5c(cnn5-c5ccc(F)cc5)C[C@]4(C)[C@H]3[C@@H](O)C[C@@]21C
study_system: SF-268 CNS
class_name: f
--
compound: Cc1ccc(C(=O)Nc2ccc(CN3CCN(C)CC3)c(C(F)(F)F)c2)cc1C#Cc1cnc(N)c2ccc(F)cc12
study_system: SF-268 CNS
class_name: t
--
compound: OCCN1CCN(CC/C=C2/c3ccccc3Sc3ccc(C(F)(F)F)cc32)CC1
study_system: SF-268 CNS
class_name: f
--
compound: COc1ccc(/C=C2\CCCC3=C2N=C2SC=NN2C3c2ccc(OC)c(OC)c2)cc1OC (centres undefined)
study_system: SF-268 CNS
class_name: f
--
compound: COc1ccc2cn3c4ccc(O)cc4[nH]c(=O)c3c2c1
study_system: SF-268 CNS
class_name: f
--
compound: COc1ccc(C2=NN(C(=O)c3cc(-c4ccc(C)cc4)nc4ccccc34)C(c3cc(-c4ccccc4)nn3-c3ccccc3)C2)cc1 (centres undefined)
study_system: SF-268 CNS
class_name: f
--
compound: C/C=C(/C)C(=O)OC1C=C(CO)C(=O)C(OC(=O)/C(C)=C\C)C1C(C)C (centres undefined)
study_system: SF-268 CNS
class_name: t
--
compound: COc1cc2oc(-c3ccc(NC(=O)c4ccccc4)cc3)cc(=O)c2c(OC)c1OC
study_system: SF-268 CNS
class_name: f
--
compound: N=C(N)c1ccc(-c2ccc(-c3cc(Cl)cc(Cl)c3)s2)cc1
study_system: SF-268 CNS
class_name: t
--
compound: CN1NC(c2ccccc2)NN(C)C1=O
study_system: SF-268 CNS
class_name: f
--
compound: CC1=C(C)C(=O)C(C(C)C2=C(C)C(=O)C(C)=C(C)C2=O)=C(C)C1=O
study_system: SF-268 CNS
class_name: f
--
compound: O=C(O)c1ccc(Br)nc1
study_system: SF-268 CNS
class_name: f
--
compound: N#Cc1ccc(OCc2nc(N)nc(N)c2-c2ccc(Cl)c(Cl)c2)cc1
study_system: SF-268 CNS
class_name: f
--
compound: COc1ccc(Nc2c3ccccc3nc3ccccc23)cc1
study_system: SF-268 CNS
class_name: f
--
compound: COc1ccc(-c2nnc(SCC(=O)Nc3ccc(C(=O)/C=C/c4cc(OC)c(OC)c(OC)c4)cc3)n2-c2ccccc2)cc1OC
study_system: SF-268 CNS
class_name: t
--
compound: COc1cc(NC(C)CCCN)c2nccc(C)c2c1OC (centres undefined)
study_system: SF-268 CNS
class_name: f
